system: RPMI-8226 leukemia; assay: NCI tumour cell line growth inhibition, 48 h
Catalogue of compounds with associated TGI

                                   compound  target_or_test_system       val
0  CCc1cc2c(cc1C(=O)CCC(=O)O)CC1(C2)Cc2cc(CC)c(C(=O)CCC(=O)O)cc2C1     RPMI-8226 leukemia  > 100 µM
1           Cc1cn(CC2(CO)CCC2)c(=O)[nH]c1=O     RPMI-8226 leukemia  > 100 µM
2  COc1cccc(C2SC(C)C(=O)N2NC(=O)C(O)c2ccccc2)c1 (stereo unspecified)     RPMI-8226 leukemia  > 100 µM
3        Cc1cc2[nH]c(=O)c3c4ncccc4cn3c2cc1C     RPMI-8226 leukemia   7.61 µM
4  CCOP(=O)(OCC)/C(=C\n1ccc(=O)[nH]c1=S)C(=O)OC     RPMI-8226 leukemia  > 100 µM
5  Cn1cc(-c2ncnc3ccc(-c4cnc(Cl)c(NS(C)(=O)=O)c4)cc23)c2ccccc21     RPMI-8226 leukemia   4.17 µM

Attention now turns to another entry.
Task item: Can you look up the measured TGI of CC(=O)OC1CC2C(C)(C)C(=O)C=C[C@]2(C)C2CCC3(C)C(c4ccoc4)C(=O)C4OC43[C@]12C (stereo partly specified) for me?
Reply: 22.5 µM
